System: K4 kissing-loop RNA reporter;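 further: bound reporter read as fluorescence of individual clusters on recovered sequencing chips by microscopy, with normalized cluster intensities fitted with a binding model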
ASSAY METHOD TEXT: apparent KD of K4 kissing-loop reporter; higher = weaker reporter binding
CONDITION DETAILS: Eterna round: R107; input ligand: tryptophan 2.4 mM
Hi all, reminder that labels come from apparent KD of K4 kissing-loop reporter, split as class A: < 200 nM; class B: ≥ 200 nM and < 400 nM; class C: ≥ 400 nM

A selection of reference data follows.
SEQ STRING	LABEL
AAGCAGUCACUCGAAACCAUCGAAGAUGGUCGAGGACCGGUACGGCCGCCACUCGGAGUGAUGUUCCGAAGACUGCAAAAUAAAA [#SwitchBubble 10]	class C
UAUCAGAUUACUGAUACCAGUCUAAAGACAGUGAUGUUGUCUGAUCGACCACGAUCAAAGGACCCUUGGCAGCAGUAUACUAUUC [Theo B SS t5]	class A
UUGGAUUGAUGAGAGUUGAUUUGGUAGGAAGGAGCGGCCGAAAGGCCAGGUAGGUCGCCUAUUGACAGUGAUGUUGUUAUAUGGU [#16]	class B
AGAAGAUAUCAAGAUACCAGCUCCCGGCCCAAAACCCAGAUACACGAGUGAUGUUCGUUCAGCCCUUGGCAGCUUGCCUAGUUCU [theeternabot_sameState_KL_Theo_B_6]	class A
UGGACUAGUGUGAGUGAUGUUCACUUCGAUACCAGCAGAGCGAUCUGCCCUUGGCAGCGAGUUAACUGCCGAAAGGCAAGGUCCA [Theo B SS t9a]	class B
AGACCACAAAGUGGUCAGUGUUCGCUCCGGCGAGGACCGGUACGGCCGCCACUCGCGAGUGAUGUUCGCGAGCGGAGCGAACACA [Omei KL Tryp A Exc A v2]	class A
GGAUCCACCAGUGAUGUUGGAGAAAACUCUAAGGAUAUGACGAAAGUCAGAAGGUGGUAGACUGGGCAAAGUCCGGUCGGAUCCA [FmnA10 U30+G66]	class C
UUAGAGAUCUCAGGAUAUGAGUGAUGUUGGUAUCAAGAUCUGAGAUAGAAUUCUAUCUCAGAUCAAUCAGAAGGGAGAUCUCAUU [AK2.1 Exc FMN B]	class C
CGCAGUGAUGUUGCUAUUAUUCUUGAUUAACGAGGACCGGUACGGCCGCCACUCGAUUUCUAUCUUAUUUUGUGUUAUGUUGAUU [JR_ExcTryptoA_Sub008]	class B
GCCAGUGAUGUUGGCGAACCAACGCAUGCAGAGGAUAUUCGUUCGGGAAGAAGGCUGCAGCGUUCUCUCCCGCAGUGAUGUUGCG [Same State FMN A GF 25]	class A

[Q] Which class holds UGACUGGAUUGAAGGAGCGCUAAACUCCUAGUGAUGUUAGGGACACAAGACAAAGUCUUGAGGCAGGUAGGUCGCAAUCUAGUCU [FiskerMod 5 - Jieux - Same State - Arginine B] ?
[A] class B

[Q] Using the reported apparent KD of K4 kissing-loop reporter, which band applies to UGUCAUUGGUCUGAUACCAGCUGAUCGGAAACGAUCUUGCUGGAGUGAUGUUCCAGGAAAAGCCCUUGGCAGCAGACCGAUGACU [TheoBS 10 #SwitchBubble #StaticStem] ?
[A] class C

[Q] The entry to classify is UGGACGAUAUACGAUAAGUAUAUCUGGGAUACCAGUGACGAAAGUCACCCUUGGCAGCUCAACUGCCAGUGAUGUUGGUAGUCCA [#17 K4 Theophylline A Same State] ; which class holds it?
[A] class A

[Q] Dear colleague, I would appreciate it if you could identify the bin for AUUUUUAACUGAGGAUAUCGAAUUUAUGUAGUGAUGUUACUUUAAAUUAAAAUUUUAAUUUCUUAACGAGAAGGCAGAAUAAUUA [JR_SSFMNB_Sub025] and reply at your convenience.
[A] class A

[Q] Quick check: band for UGAGUUAGACAAAAGUCUAGCUCUGGUGAAGGAGCGUCCGAAAGGACAGGUAGGUCGCACCACCUGAGUGAUGUUCAGAAUCCUU [KL-SSArg-A22]
[A] class C

---

Tested on: MS2 coat protein
ASSAY METHOD TEXT: apparent KD of MS2 coat protein; designed switch direction (-1 OFF switch, 1 ON switch): 1; higher = weaker reporter binding
CONDITION DETAILS: Eterna round: R95; input ligand: microRNA oligo, concentration not stated
REPORTED ENDPOINT: apparent KD of MS2 coat protein (µM)
// units = µM; emit number, no label

Solved cases (6 shown):
SEQ STRING	UNITS LABEL	VALUE
AUAAAACAUGAGGAUCACCCAUGUGGCGCUGACACAGGAUAUCAUGCGGAACUGGACGUAUGAGAAGGGUGAUGCG [Diateedza] (puzzle: Same State 1)	µM	0.216
CUACGAGCGCCACAGGAUAUACUGAGACUCACAUGAGGAUCACCCAUGUCCAAUUCUCCCAAAUAGUAGAAGGGUGACGCGCUCG [Maenve] (puzzle: Same State 2)	µM	0.48
AGUCCAGCCUGAGCUGGACAAAAGCAUGUACAUGAGGAUCACCCAUGUCAUGUACAAGUUUUUUGCUCGUCUUAAUA [Zipper 49 - 12] (puzzle: Sensor for hsa-mir-208a)	µM	0.0111
AACAAUCUAUCUGAGGAUAUCAUGAAAUAAACAUGAGGAUCACCCAUGUGCAGGAAUACUGCAUAUGAGAAGGCAGAUAGAUUGA [salish99_ss2_r3_042] (puzzle: Same State 2)	µM	1.04
GCCCAUAGUAUAUGGAUACAAGCUUUUUGACAUGAGGAUCACCCAUGUACUCGUCUUAUGUGCAGUCCGUAGACUGC [JL-shm-2.20 Brourd mod] (puzzle: Sensor for hsa-mir-208a)	µM	0.0158
AAAGCACAUGAGGAUCACCCAUGUGGAAAUAACACAGGAUAUCUGGCCUAAGCUUAGGCGAGAGAAGGGUGACCUA [Beintivequ] (puzzle: Same State 1)	µM	0.0655

Now let's try a different one.
// sample GGUAUCUCCAGUGAGGAUAUGCGGCGUAGAACAUGAGGAUCACCCAUGUCCUUCGAAUGGGUUACGCAGAAGGCACUACGGUACC [Robot Arm] (puzzle: Same State 2) , its apparent KD of MS2 coat protein was 0.0301

---

System: MS2 coat protein
ASSAY METHOD TEXT: apparent KD of MS2 coat protein; designed switch direction (-1 OFF switch, 1 ON switch): 1; higher = weaker reporter binding
CONDITION DETAILS: input ligand: microRNA oligo, concentration not stated
Assign class by apparent KD of MS2 coat protein: not lower than 90 nM means label 1; lower than 90 nM means label 0.

Observe how each entry below is paired with its result.
SEQ STRING	LABEL
GAGUAGUUGGGAGGAUAUGCAUUGUUAUAGAAUGCAGAAGGUUUUAACAUGAGGAUCACCCAUGUAGGACUAUUCCUGUGUAUC [Parity 71 - Jieux - Same State NG 1] (Eterna round: R96, puzzle: Same State NG 1)	label 0
GUGCGGGUAAGAGGAUAUACAAAUUCUCGUUCUGAGACGAGAACAUGAGGAUCACCCAUGUCUAAGUAGAAGGUUUCAGGCACC [Eternabot solution 28] (Eterna round: R96, puzzle: Same State NG 2)	label 0
GGCCAGAGUCAAGGAUAUGCUACCGUUUCGGUAGCAGAAGGUGAUCACAUGAGGAUCACCCAUGUUUACUGCGAGAGCAUGGCC [JL SSNG1 3.68] (Eterna round: R96, puzzle: Same State NG 1)	label 1
GUAGCAUACCGAGGAUAUUCAUAUUAUAACAUGAGGAUCACCCAUGUAGGUCGAUUACGACCUUGGGAGAAGGCGGAAUGCUAC [Xeonanis - 20 Mod35] (Eterna round: R96, puzzle: Same State NG 2)	label 1
UGGAGAAAUCAAGGAUAUGCUACCGUUUCGGUAGCAGAAGGUGAUCACAUGAGGAUCACCCAUGUAUGCAUGCGUGAGCGUGCU [JL SSNG1 3.54] (Eterna round: R96, puzzle: Same State NG 1)	label 0

[Q] # bool: apparent KD of MS2 coat protein of GGCGAACAGGCUAACAUGAGGAUCACCCAUGUGGACUUCGUGUAGGAUAUCGGGAAGGAGGAAACCGAGAAGGGCGAAGAAGCC [AK SSNG3-V2-49.1] (Eterna round: R96, puzzle: Same State NG 3) >= 90 nM
[A] label 0

[Q] Exam item: decide whether the reported apparent KD of MS2 coat protein for GUGGAGGGUUGAGGAUAUUGAAUACAUAUGUUUAACAUGAGGAUCACCCAUGUGGGUUGCGGUAUCGAGAAGGUAAGUUGCUGG [salish99_SSNG2_r04_038] (Eterna round: R96, puzzle: Same State NG 2) is at least 90 nM.
[A] label 1

---

System: MS2 coat protein
ASSAY METHOD TEXT: apparent KD of MS2 coat protein; designed switch direction (-1 OFF switch, 1 ON switch): -1; higher = weaker reporter binding
CONDITION DETAILS: input ligand: FMN 200 uM
Assign condition met to entries whose apparent KD of MS2 coat protein meets or exceeds 0.2 µM; assign condition not met to the rest.

Example entries begin here.
SEQ STRING	LABEL
GAGUACUGAGGAUAUACAUGAGGAUCACCCAUGUGUUCCAGCUAGGAAACUAGCAAAAGUAGAAGGCAGUACUG [salish99_ex3_r3_084] (Eterna round: R96, puzzle: Exclusion 3)	condition met
CUGCUGGAGCGUUGCUUUGGUCGUACAUGAGGAUCACCCAUGUAGGAUAUGGUAAAAUUUGCUUGCUAGAAGGAUAGAGUGGUC [salish99_ExNG3_r04_613] (Eterna round: R96, puzzle: Exclusion NG 3)	condition not met
AGAACUCUAGUAGGAUAUGUCGGAUAUGUUGUUGAGGUUCACCCAACGACGUCAAUGACAGAAGGACAGAAGGACUCCUGUUCA [pwkr exNG2 2xFMN 1xF5.8] (Eterna round: R96, puzzle: Exclusion NG 2)	condition met

Pending sequence:
[Q] Reported apparent KD of MS2 coat protein reaches at least 0.2 µM for UUAAAGUCAGGAUAUACAUGAGGAUCACCCAUGUAAAAUUUUAAUUUAAUUUUAAGGUGUAGAAGGGACAAUUU [Ex3 #2] (Eterna round: R97, puzzle: Exclusion 3) ?
[A] condition not met
